// reported Ki per item
# systemName: hLDH5 (LDH-A) (Homo sapiens)
# testSummary: Enzyme inhibition of human lactate dehydrogenase isoform 5
# conditionDetails: ranges of values; 37° C., pH 7.4; read-out: inhibitory activity against hLDH5 (Ki)

# annotated cases, reported Ki shown
COC(=O)c1cc2c(C(F)(F)F)cc(-c3cc(Cl)ccc3Cl)cc2n1O [Example 38]: 5 to 25 µM
COC(=O)c1cc2c(C(F)(F)F)cc(-c3ccc(OC(F)(F)F)cc3)cc2n1O [Example 18]: 1 to 10 µM
O=C(O)c1cc2c(C(F)(F)F)cc(-c3ccccc3OC(F)(F)F)cc2n1O [Example 35]: 5 to 25 µM
COC(=O)c1cc2c(C(F)(F)F)cc(-c3cc(Cl)cc(Cl)c3)cc2n1O [Example 42]: 1 to 10 µM
O=C(O)c1cc2c(C(F)(F)F)cc(-c3cc(Cl)ccc3Cl)cc2n1O [Example 39]: 5 to 25 µM
CC(C)OC(=O)c1cc2c(C(F)(F)F)cc(-c3ccc(Cl)cc3Cl)cc2n1O [Example 32]: 0.5 to 5 µM

Query: Query for hLDH5 (LDH-A) (Homo sapiens): what Ki does the record show for COC(=O)c1cc2c(C(F)(F)F)cc(-c3cccc(Cl)c3Cl)cc2n1O [Example 36] ?
Response: 1 to 10 µM

====

# Test system: H1299
# testSummary: Inhibition of tumor cell growth method (a), sulforhodamine B assay
# Assay type: cell-based
# conditionDetails: Homo sapiens, NCI-H1299; H1299, 72 hours, SRB
measurementKind: IC50

O=C(O)c1cc2c(C(F)(F)F)cc(-c3ccccc3)cc2n1O [reference compound]: 141 µM
CCOC(=O)c1cc2c(C(F)(F)F)cc(-c3ccccc3)cc2n1O: < 40 µM

Okay, next one:
Query: Please look up its IC50: COC(=O)c1cc2c(C(F)(F)F)cc(-c3ccccc3)cc2n1O[C@@H]1O[C@H](CO)[C@@H](O)[C@H](O)[C@H]1O
Response: < 40 µM

====

// reported pIC50 per item
# systemName: hLDH5 (LDH-A) (Homo sapiens, UniProt P00338)
# testSummary: Enzyme inhibition of human lactate dehydrogenase isoform 5
# conditionDetails: ranges of values; room temperature, pH 7.4; read-out: inhibitory activity against hLDH5 (IC50)
pIC50: −log10 of the molar value.

# annotated cases, reported pIC50 shown
CCOC(=O)c1cc2c(C(F)(F)F)cc(-c3ccc(Cl)cc3Cl)cc2n1O[C@@H]1O[C@H](COC(C)=O)[C@@H](OC(C)=O)[C@H](OC(C)=O)[C@H]1OC(C)=O [Example 13]: < 4.00
CCOC(=O)c1cc2c(C(F)(F)F)cc(-c3ccc(Cl)cc3Cl)cc2n1O[C@@H]1O[C@H](CO)[C@@H](O)[C@H](O)[C@H]1O [Example 12]: 3.30 to 4.30

Okay, next one:
Query: Query for hLDH5 (LDH-A) (Homo sapiens, UniProt P00338): what pIC50 does the record show for CC(C)(C)C1CCC(OC(=O)c2cc3c(C(F)(F)F)cc(-c4ccccc4)cc3n2O)CC1 (stereo not drawn) [Example 49] ?
Response: 6.00 to 8.00

====

// reported pKi per item
# systemName: hLDH5 (LDH-A) (Homo sapiens, UniProt P00338)
# testSummary: Enzyme inhibition of human lactate dehydrogenase isoform 5
# conditionDetails: ranges of values; 37° C., pH 7.4; read-out: inhibitory activity against hLDH5 (Ki)
pKi: −log10 of the molar value.

COC(=O)c1cc2c(C(F)(F)F)cc(-c3ccc(Cl)cc3Cl)cc2n1O: 5.00 to 6.00

Query: Please look up its pKi: O=C(O)c1cc2c(C(F)(F)F)cc(-c3cc(Cl)cc(Cl)c3)cc2n1O
Response: 5.00 to 6.00

Query: Please look up its pKi: COC(=O)c1cc2c(F)cc(-c3ccc(Cl)cc3Cl)cc2n1O
Response: 4.60 to 5.30
